Reference source: PubChem BioAssay AID1259421

test: T. gondii ME49Luc in HeLa cells, luciferase assay, 72 h, no IFN-y (AID 1259421); conditions: hits give low values, concentration not given here
Among all 6,400 compounds or so, about 610 (9.5%) were called active. The entries come from a sample that favours actives as a whole.
Readout: activity change, negative = inhibition (%)
Write it as a number; the unit % goes unstated.

input: Name the recorded activity change, negative = inhibition for COc1cccc2c1C(=O)c1c(O)c3c(c(O)c1C2=O)CC(O)(C(=O)CO)CC3OC1CC(N)C(O)C(C)O1 (centres undefined) .
output: -89.5

input: Please give the measured activity change, negative = inhibition for this compound: "CC(=O)O[C@]1(C(C)=O)CC[C@H]2[C@@H]3CCC4=CC(=O)CCC4=C3[C@@H](c3ccc(N(C)C)cc3)C[C@@]21C"
output: -58.3

input: I'd like to know its activity change, negative = inhibition. The compound in question is "CCCCC(=O)OCC(=O)[C@]1(O)Cc2c(O)c3c(c(O)c2[C@@H](O[C@H]2C[C@H](NC(=O)C(F)(F)F)[C@H](O)[C@H](C)O2)C1)C(=O)c1c(OC)cccc1C3=O"
output: -24.8

input: Returns the measured activity change, negative = inhibition for the input compound. Input: "CCOC(=O)/C(=N/O)c1csc(N)n1"
output: 7.65

input: Which activity change, negative = inhibition value is on record for COc1cccc2c1C(=O)c1c(O)c3c(c(O)c1C2=O)C[C@@](O)(C(=O)CO)C[C@@H]3OC1C[C@H](N)[C@H](O)[C@H](C)O1 (some centres undefined) ?
output: -87.6

input: Can you look up the measured activity change, negative = inhibition of "O[n+]1ccccc1[S-].O[n+]1ccccc1[S-].[Zn+2]" for me?
output: -66.7

input: Entry "O=C(O)c1cc(N(Cc2ccccc2O)Cc2ccccc2O)ccc1O" has what activity change, negative = inhibition?
output: 2.11

input: Any idea what its activity change, negative = inhibition is? The compound is CC#CC1(O)CCC2C3CCC4=CC(=O)CCC4=C3C(c3ccc(N(C)C)cc3)CC21C (centres undefined)
output: 32.4

input: Param item = "CC(N)=NCCCC[C@H](N)C(=O)O" ; retrieve measured activity change, negative = inhibition.
output: 11.5

input: Return reported activity change, negative = inhibition; argument: "O=C(NN1C(=O)[C@@H]2[C@@H]3C=C[C@@H]([C@H]4C[C@@H]34)[C@@H]2C1=O)c1ccc(C(F)(F)F)cc1"
output: 3.93

input: Data request, read-out activity change, negative = inhibition, for "C[C@H](O[C@H]1OCCN(Cc2n[nH]c(=O)[nH]2)[C@H]1c1ccc(F)cc1)c1cc(C(F)(F)F)cc(C(F)(F)F)c1"
output: 3.24

input: Bench note: what activity change, negative = inhibition did "Cn1[nH]c(=O)c(=O)[nH]c1=S" show?
output: 14.6

input: Which activity change, negative = inhibition reading was recorded for the compound O=C(NC(Cc1c[nH]c2ccccc12)C(=O)O)c1ccc(Cl)cc1 (centres undefined) ?
output: 4.2

input: What value of activity change, negative = inhibition has been reported for the following compound? "COc1cccc(N2CCN(C3=Nc4c(F)cccc4[C@H](CC(=O)O)N3c3cc(C(F)(F)F)ccc3OC)CC2)c1"
output: -1.57

input: Please look up its activity change, negative = inhibition: "COc1ccc2c(=O)c(CC(=O)O)coc2c1"
output: 4.96

input: So what's the measured activity change, negative = inhibition for this one? "CCCCCCCCCCCCCC[C@@H](O)[C@@H](O)[C@@H](N)CO"
output: 24.8

input: Given the compound C[N+]1(C)[C@@H]2CC(OC(=O)[C@H](CO)c3ccccc3)C[C@H]1[C@@H]1O[C@@H]12 (some centres undefined) , what is its reported activity change, negative = inhibition?
output: 10.8

input: I would be grateful if you could share the reported activity change, negative = inhibition for "C[N@+]12CCCC[C@@H]1CCC(=C(c1cccs1)c1cccs1)C2" .
output: 13.6

input: Requested read-out: activity change, negative = inhibition. Entry: CCCCC(CC)CN=C(N)NC(N)=NCCCCCCN=C(N)NC(N)=NCC(CC)CCCC (centres undefined)
output: -87.6

---

assay: T. gondii ME49Luc in HeLa cells, luciferase assay, 72 h, no IFN-y (AID 1259421); conditions: hits give low values, concentration not given here
Hit rate of the full screen: of about 6,400 compounds, about 610 (9.5%) were called active. Shown is part of a subset that was picked to be rich in actives.
Readout: activity change, negative = inhibition (%)
Kindly answer with a numeric value in %, unit omitted.

input: Given the compound "COc1ccc(-c2ccc3ncc4c(c3c2)n(-c2ccc(N3CCNCC3)c(C(F)(F)F)c2)c(=O)n4C)cn1" , what is its reported activity change, negative = inhibition?
output: -88.5

input: Could you tell me which activity change, negative = inhibition is on file for "COc1ccc(C(=O)/C=C/c2ccccc2)cc1" ?
output: 157

input: activity change, negative = inhibition lookup needed for "C=CCn1c(=O)n([C@@H]2O[C@H](CO)[C@@H](O)[C@H]2O)c2nc(N)[nH]c(=O)c21" , thanks.
output: -1.47

input: Consider the compound "Cn1c(=O)c2c(ncn2CCOC(=O)C(C)(C)Oc2ccc(Cl)cc2)n(C)c1=O" and give its measured activity change, negative = inhibition.
output: 7.49

input: Using the record for N#CC(c1ccnc(OCc2ccc(CN3CCOCC3)cc2)n1)c1nc2ccccc2s1 (stereo unspecified) , report its activity change, negative = inhibition.
output: -29.2

input: Query (compound): "O=C(O)c1ccc2nc(-c3cc(Cl)cc(Cl)c3)oc2c1" ; field requested: activity change, negative = inhibition
output: 84.3

input: # activity change, negative = inhibition lookup, item "CN(CC(=O)O)C(=N)N"
output: 15.6

input: // returns reported activity change, negative = inhibition for input CCS(=O)(=O)N(C)C1c2cc(C#N)ccc2OC(C)(C)C1O (stereo unspecified)
output: -6.08

input: Would you mind telling me what activity change, negative = inhibition value was observed for "CCCCCCCCCCCCCCCCCCCCCC(=O)O" ?
output: -1.78

input: # query: activity change, negative = inhibition of entry CC(C)(C)NC(=O)[C@H]1CCC2C3CC[C@H]4NC(=O)C=C[C@]4(C)C3CC[C@@]21C (stereo partly specified)
output: -5.92

input: Requested field: activity change, negative = inhibition. Item: CC(NC(=O)CCc1nc2ccccc2c(=O)[nH]1)c1ccccc1 (stereo unspecified)
output: 4.68

---

Assignment: determine reported activity change, negative = inhibition for the given compounds.
experiment: T. gondii ME49Luc in HeLa cells, luciferase assay, 72 h, no IFN-y (AID 1259421); details: hits give low values, concentration not given here
Out of some 6,400 compounds screened, about 610 (9.5%) were called active. The full list was thinned out, with actives kept by preference.
Lab book: enter the figure in %, no units written.

input: Need activity change, negative = inhibition, item CCc1cc(Cl)c(OC)c(C(=O)NCC2CCCN2CC)c1O (stereo not drawn)
output: 0.175

input: Could you share which activity change, negative = inhibition value was measured for "COc1cc([C@@H]2c3cc4c(cc3[C@H](O)[C@H]3COC(=O)[C@H]23)OCO4)cc(OC)c1OC" ?
output: -64.9

input: Param item = "COc1cc2c(c(OC)c1OC)-c1c(cc3c(c1OC)OCO3)C[C@H](C)[C@@H](C)C2" ; retrieve measured activity change, negative = inhibition.
output: 13.7

input: So what's the measured activity change, negative = inhibition for this one? "O=C(O)c1cc(=O)c2c3nc4ccccc4oc-3cc(=O)c2[nH]1"
output: 1.96

input: // query activity change, negative = inhibition value for entry COc1cc([C@@H]2c3cc4c(cc3C(O[C@@H]3O[C@@H]5CO[C@@H](c6cccs6)OC5[C@H](O)[C@H]3O)C3COC(=O)[C@@H]32)OCO4)cc(OC)c1O (stereo partly drawn)
output: -79.4

input: activity change, negative = inhibition lookup needed for "O=c1cc(-c2ccccc2O)oc2cc(O)ccc12" , thanks.
output: 190

input: // activity change, negative = inhibition lookup, key: "O=C(CCc1ccc(O)cc1)c1c(O)cc(O)cc1O[C@@H]1O[C@H](CO)[C@@H](O)[C@H](O)[C@@H]1O"
output: 6

input: Can you look up the measured activity change, negative = inhibition of COc1cc([C@@H]2c3cc4c(cc3C(OC3O[C@@H]5COC(C)O[C@H]5[C@H](O)[C@H]3O)C3COC(=O)[C@@H]32)OCO4)cc(OC)c1O (stereo partly drawn) for me?
output: -0.506
